molecular target: HLA-B*0702 (HLA-B7) peptide complexes (Homo sapiens, UniProt P01889); construct: endogenous in cells; host or cells: JY B-lymphoblastoid line; primary ALL, CLL, HCL, AML samples; bone marrow; healthy B and T cells; test: HLA-B*0702 phosphopeptides associated with leukemia samples (isolation of HLA-associated peptides); settings: acute lymphoblastic leukemia sample ALL1
Non-standard residues stand in square brackets, D forms with d. No end group written: not given here. pT = C[C@@H](OP(=O)(O)O)[C@H](N)C(=O)O; pS = N[C@@H](COP(=O)(O)O)C(=O)O

{"SUBSTANCE": "289 (KPQTRGK[pT]F; listed as Homo sapiens) [compound 289]", "Copies/cell class, ALL1": "1 (1 indicates <1 copy/cell)"}
{"SUBSTANCE": "315 (RPI[pT]PPRNSA; listed as Homo sapiens) [compound 315]", "Copies/cell class, ALL1": "1 (1 indicates <1 copy/cell)"}
{"SUBSTANCE": "385 (TPAQPQRR[pS]L; listed as Homo sapiens) [compound 385]", "Copies/cell class, ALL1": "1 (1 indicates <1 copy/cell)"}
{"SUBSTANCE": "310 (RPA[pT]GGPGVA; listed as Homo sapiens) [compound 310]", "Copies/cell class, ALL1": "1 (1 indicates <1 copy/cell)"}
{"SUBSTANCE": "322 (RPP[pS]SEFLDL; listed as Homo sapiens) [compound 322]", "Copies/cell class, ALL1": "3 (3 indicates 6-25 copies per cell)"}
{"SUBSTANCE": "320 (RPPPPPD[pT]PP; listed as Homo sapiens) [compound 320]", "Copies/cell class, ALL1": "1 (1 indicates <1 copy/cell)"}
{"SUBSTANCE": "285 (KPP[pS]PEHQSL; listed as Homo sapiens) [compound 285]", "Copies/cell class, ALL1": "1 (1 indicates <1 copy/cell)"}
{"SUBSTANCE": "288 (KPPYRSH[pS]L; listed as Homo sapiens) [compound 288]", "Copies/cell class, ALL1": "2 (2 indicates 1-5 copies/cell)"}
{"SUBSTANCE": "363 (RTE[pS]DSGLKK; listed as Homo sapiens) [compound 363]", "Copies/cell class, ALL1": "1 (1 indicates <1 copy/cell)"}
{"SUBSTANCE": "319 (RPN[pS]PSPTAL; listed as Homo sapiens) [compound 319]", "Copies/cell class, ALL1": "1 (1 indicates <1 copy/cell)"}
{"SUBSTANCE": "318 (RPKPSS[pS]PV; listed as Homo sapiens) [compound 318]", "Copies/cell class, ALL1": "2 (2 indicates 1-5 copies/cell)"}
